System: NCI-H838
Test: relative viability (nuclei count vs DMSO), 5 days (fraction); higher = more cells survive
Settings: first compound 0.002 µM
PROPERTY LABEL: relative viability
Note: the reply should be a number with no unit written.

Request: Return relative viability measured with NCI-H838 given this compound: CC(=O)O[C@@]12CO[C@@H]1C[C@H](O)[C@@]1(C)C(=O)[C@H](O)C3=C(C)[C@@H](OC(=O)[C@H](O)[C@@H](NC(=O)OC(C)(C)C)c4ccccc4)C[C@@](O)([C@@H](OC(=O)c4ccccc4)[C@H]21)C3(C)C [Docetaxel] + C[C@]1(O)C[C@@H](c2nc(-c3ccc4ccc(-c5ccccc5)nc4c3)c3c(N)nccn32)C1 [Linsitinib] (partner 1 µM)
Result: 0.247
